Just for reference, patent US6525066B2 is where these values come from.

system: Bacteroides fragilis GAI0675
Reported Endpoint: MIC (µg/mL)
Answers are plain numbers, in µg/mL.

Cc1c(-c2ccc3c(c2)CNC3C)ccn2c(=O)c(C(=O)O)cc(C3CC3)c12 (centres unmarked)	0.031
C[C@H]1COc2c(N3CCN(C)CC3)c(F)cc3c(=O)c(C(=O)O)cn1c23 [LVFX, levofloxacin, reference compound]	0.5
COc1cc(-c2ccn3c(=O)c(C(=O)O)cc(C4CC4)c3c2OC)cc2c1CNC2	0.25
Cc1c(-c2cc(F)c3c(c2)CNC3)ccn2c(=O)c(C(=O)O)cc(C3CC3)c12	0.016

Let us examine a further case.
Return reported MIC. Input compound: `Cc1c(-c2ccc3c(c2)CNC3)ccn2c(=O)c(C(=O)O)cc(C3CC3)c12` 0.031
